Reported values of EC50 (read off the curve) for individual entries
- MEASURED ON: T1, human IL-17A (construct not stated) (human, UniProt Q16552 24-155, limits assumed)
- T1 construct: also called huIL-17A; human IL-17A biotin
- T1 sequence: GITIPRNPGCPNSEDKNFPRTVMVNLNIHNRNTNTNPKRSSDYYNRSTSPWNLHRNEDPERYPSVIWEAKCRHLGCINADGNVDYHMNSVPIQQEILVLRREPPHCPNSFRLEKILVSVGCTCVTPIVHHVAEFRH
- RUN DESCRIPTION: ELISA titration of purified Fab on plate-coated huIL-17A, normalized signal; x axis printed as log10 of Fab concentration (M)

{"columns": ["BINDER", "EC50 (read off the curve)"],
 "data": [
  ["MB468 (Fab, V domains shown, heavy chain C-terminal Flag tag; with N56Q formatted to IgG as XAB3) VH: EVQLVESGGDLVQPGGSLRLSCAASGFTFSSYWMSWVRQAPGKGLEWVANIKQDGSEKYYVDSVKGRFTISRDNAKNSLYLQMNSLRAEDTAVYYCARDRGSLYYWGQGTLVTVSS VL: AIQLTQSPSSLSASVGDRVTITCRPSQGIYWELAWYQQKPGKAPKLLIYDASSLENGVPSRFSGSGSGTDFTLTISSLQPEDFATYYCQQFNSYPLTFGGGTKVEIK", "~2 nM"],
  ["MB435 (Fab, V domains shown, heavy chain C-terminal Flag tag) VH: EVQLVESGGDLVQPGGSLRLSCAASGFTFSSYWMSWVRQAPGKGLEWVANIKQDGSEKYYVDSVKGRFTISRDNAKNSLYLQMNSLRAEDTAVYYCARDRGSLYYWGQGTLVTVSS VL: AIQLTQSPSSLSASVGDRVTITCRPSQGINWELAWYQQKPGKAPKLLIYDASSLENGVPSRFSGSGSGTDFTLTISSLQPEDFATYYCQQFNSYPLTFGGGTKVEIK", "~2 nM"],
  ["MB440 (Fab, V domains shown, heavy chain C-terminal Flag tag) VH: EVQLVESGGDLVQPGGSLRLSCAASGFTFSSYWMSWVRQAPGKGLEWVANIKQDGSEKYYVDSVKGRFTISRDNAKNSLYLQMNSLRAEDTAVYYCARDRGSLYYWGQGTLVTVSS VL: AIQLTQSPSSLSASVGDRVTITCRPSQGILWQLAWYQQKPGKAPKLLIYDASSLENGVPSRFSGSGSGTDFTLTISSLQPEDFATYYCQQFNSYPLTFGGGTKVEIK", "~0.6 nM"],
  ["MB463 (Fab, V domains shown, heavy chain C-terminal Flag tag) VH: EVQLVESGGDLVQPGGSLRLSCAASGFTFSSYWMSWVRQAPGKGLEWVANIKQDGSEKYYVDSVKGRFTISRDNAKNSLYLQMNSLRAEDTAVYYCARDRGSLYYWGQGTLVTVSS VL: AIQLTQSPSSLSASVGDRVTITCRPSQGIYFELAWYQQKPGKAPKLLIYDASSLENGVPSRFSGSGSGTDFTLTISSLQPEDFATYYCQQFNSYPLTFGGGTKVEIK", "~3 nM"]
]}
